Target: T1, TNFR1 (Homo sapiens, UniProt P19438)
T1 chain: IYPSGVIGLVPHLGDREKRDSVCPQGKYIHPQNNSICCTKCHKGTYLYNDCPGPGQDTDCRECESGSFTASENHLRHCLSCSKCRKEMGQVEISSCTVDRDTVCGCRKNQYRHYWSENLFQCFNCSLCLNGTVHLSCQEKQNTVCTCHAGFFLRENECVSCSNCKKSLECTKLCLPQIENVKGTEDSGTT
Assay Summary: yeast display SC50
Readout Label: apparent Kd (screen) (nM)

R21V (designed binder) MTLQELLREEALRRAEAEAFVYALELLAEKFPEQKEYLLDLAEEIESQIRSLSGVDVEDVRKFLDKEWAWVKELLAEHPAELAEVEAARAARLAELRAEVEAKVAA = 0.718
E29S (designed binder) MTLQELLREEALRRAEAEAFRYALELLASKFPEQKEYLLDLAEEIESQIRSLSGVDVEDVRKFLDKEWAWVKELLAEHPAELAEVEAARAARLAELRAEVEAKVAA = 0.539
A19V (designed binder) MTLQELLREEALRRAEAEVFRYALELLAEKFPEQKEYLLDLAEEIESQIRSLSGVDVEDVRKFLDKEWAWVKELLAEHPAELAEVEAARAARLAELRAEVEAKVAA = 0.446
R89Q (designed binder) MTLQELLREEALRRAEAEAFRYALELLAEKFPEQKEYLLDLAEEIESQIRSLSGVDVEDVRKFLDKEWAWVKELLAEHPAELAEVEAAQAARLAELRAEVEAKVAA = 0.593
